Target: AGTR1 (Homo sapiens)
Construct: purchased Promega (in-house HiBiT-GPCR construct library, NanoBRET)
Sequence (P30556 whole entry): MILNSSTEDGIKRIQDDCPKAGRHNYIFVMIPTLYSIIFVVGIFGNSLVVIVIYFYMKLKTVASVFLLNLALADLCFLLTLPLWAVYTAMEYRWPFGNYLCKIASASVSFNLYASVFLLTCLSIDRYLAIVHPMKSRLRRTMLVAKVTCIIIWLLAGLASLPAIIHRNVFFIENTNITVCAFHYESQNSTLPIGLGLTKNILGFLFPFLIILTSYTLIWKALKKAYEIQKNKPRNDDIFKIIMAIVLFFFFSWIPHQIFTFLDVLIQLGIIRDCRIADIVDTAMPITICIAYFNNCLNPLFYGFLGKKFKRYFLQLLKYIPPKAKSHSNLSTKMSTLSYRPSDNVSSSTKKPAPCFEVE
Experiment: NanoBRET screen HiBiT-AGTR1 in HEK293
Format: binding
Details: AGTR1; tracer 0.1μM
The label criterion met is reserved for NanoBRET Fold Response strictly under 1; criterion not met covers values equal to or above it.

Worked set:
| COMPOUND | GROUP LABEL |
| --- | --- |
| Cc1cc2c(s1)Nc1ccccc1N=C2N1CCN(CCCNC(=O)CCOCCOCCOCCOCCNC(=O)CCc2ccc3n2[B-](F)(F)[N+]2=C(c4ccc[nH]4)C=CC2=C3)CC1 [Olanzapine-a-2-NB590] | criterion met |
| CC(C)N(CC[C@H](c1ccccc1)c1cc(CCNC(=O)c2ccc(CNC(=O)CCc3ccc4n3[B-](F)(F)[N+]3=C(c5ccc[nH]5)C=CC3=C4)cc2)ccc1O)C(C)C [Tolterodine-BZ-NB590] | criterion not met |

Please determine if O=C(CCOCCOCCOCCOCCNC(=O)CCc1ccc2n1[B-](F)(F)[N+]1=C(c3ccc[nH]3)C=CC1=C2)NCCCN1CCN(C2=Nc3ccccc3Oc3ccc(Cl)cc32)CC1 [Loxapine-a-2-NB590] is below 1 in terms of NanoBRET Fold Response.
criterion met

Please determine if CCCn1c(=O)c2[nH]c(-c3ccc(OCC(=O)NCCNC(=O)CCOCCNC(=O)c4ccc(CNC(=O)CCc5ccc6n5[B-](F)(F)[N+]5=C(c7ccc[nH]7)C=CC5=C6)cc4)cc3)nc2n(CCC)c1=O [XAC-3-NB590] is below 1 in terms of NanoBRET Fold Response.
criterion not met

hey, is NanoBRET Fold Response for COc1ccccc1N1CCN(CCCCN2C(=O)c3ccc(CNC(=O)CCOCCNC(=O)c4ccc(CNC(=O)CCc5ccc6n5[B-](F)(F)[N+]5=C(c7ccc[nH]7)C=CC5=C6)cc4)cc3C2=O)CC1 [NAN-190-3-NB590] lower than 1 or not?
criterion met

Problem: For the compound COc1ccccc1N1CCN(CCCCN2C(=O)c3ccc(CNC(=O)CCOCCOCCOCCOCCNC(=O)CCc4ccc5n4[B-](F)(F)[N+]4=C(c6ccc[nH]6)C=CC4=C5)cc3C2=O)CC1 [NAN-190-2-NB590] , is NanoBRET Fold Response under 1?
criterion not met

Report whether reported NanoBRET Fold Response is lower than 1 (strictly) for O=C(CCc1ccc2n1[B-](F)(F)[N+]1=C(c3ccc[nH]3)C=CC1=C2)NCc1ccc(C(=O)NCCOCCC(=O)N[C@@H]2CC[C@@]3(O)[C@H]4Cc5ccc(O)c6c5[C@@]3(CCN4CC3CC3)[C@H]2O6)cc1 [Naltrexone-3-NB590]
criterion not met

Is NanoBRET Fold Response of CC(C)N(CC[C@H](c1ccccc1)c1cc(CCNC(=O)CCOCCOCCOCCOCCNC(=O)CCc2ccc3n2[B-](F)(F)[N+]2=C(c4ccc[nH]4)C=CC2=C3)ccc1O)C(C)C [Tolterodine-2-NB590] strictly below 1?
criterion not met

* * *

Target: ADRA2A (Homo sapiens)
Construct: purchased Promega (in-house HiBiT-GPCR construct library, NanoBRET)
Sequence (P08913 1-465): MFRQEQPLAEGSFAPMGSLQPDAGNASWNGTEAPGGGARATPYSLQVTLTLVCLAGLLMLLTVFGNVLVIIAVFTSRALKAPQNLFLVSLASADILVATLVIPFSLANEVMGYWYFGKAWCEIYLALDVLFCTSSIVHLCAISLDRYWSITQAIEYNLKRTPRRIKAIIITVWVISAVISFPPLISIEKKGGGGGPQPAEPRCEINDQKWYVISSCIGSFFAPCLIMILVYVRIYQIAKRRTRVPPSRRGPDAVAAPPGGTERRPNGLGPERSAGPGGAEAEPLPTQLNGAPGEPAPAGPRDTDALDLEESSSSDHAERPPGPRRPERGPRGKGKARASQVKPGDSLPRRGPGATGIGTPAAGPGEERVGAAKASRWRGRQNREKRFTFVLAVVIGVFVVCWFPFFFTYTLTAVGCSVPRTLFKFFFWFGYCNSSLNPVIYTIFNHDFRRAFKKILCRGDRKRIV
Assay: NanoBRET screen HiBiT-ADRA2A in HEK293
Type: binding
Conditions: ADRA2A; tracer 1μM
Method: Each tracer candidate was screened across the entire library of HiBiT-GPCR constructs using NanoBRET as the detection modality. As depicted in Figure 4A, the specificity of interactions was evaluated through decrease in BRET due to competitive displacement of a bound tracer by excess parental compound. Each tracer was analyzed for binding to each HiBiT-GPCR fusion in the absence and in the presence of competing parental compound. […]
Kindly return yes (1) if reported NanoBRET Fold Response is no lower than 1; return no (0) if it is lower.

Below, 4 molecules whose answers are already recorded.
| MOLECULE | GROUP LABEL |
| --- | --- |
| O=C(CCc1ccc2n1[B-](F)(F)[N+]1=C(c3ccc[nH]3)C=CC1=C2)NCCOCCOCCNC(=O)OCCOCCN1CCN(C2=Nc3ccccc3Sc3ccccc32)CC1 | yes (1) |
| COc1ccccc1N1CCN(CCCCN2C(=O)c3ccc(CNC(=O)CCOCCOCCOCCOCCNC(=O)CCc4ccc5n4[B-](F)(F)[N+]4=C(c6ccc[nH]6)C=CC4=C5)cc3C2=O)CC1 | yes (1) |
| Cc1nc2n(c(=O)c1CCN1CCC(c3noc4cc(F)ccc34)CC1)CCCC2OC(=O)NCCOCCOCCOCCOCCNC(=O)CCc1ccc2n1[B-](F)(F)[N+]1=C(c3ccc[nH]3)C=CC1=C2 (stereo not drawn) | yes (1) |
| O=C(CCc1ccc2n1[B-](F)(F)[N+]1=C(c3ccc[nH]3)C=CC1=C2)NCc1ccc(C(=O)NCCOCCC(=O)N[C@@H]2CC[C@@]3(O)[C@H]4Cc5ccc(O)c6c5[C@@]3(CCN4CC3CC3)[C@H]2O6)cc1 [Naltrexone-3-NB590] | no (0) |

For the next question, use this molecule.
hey, is NanoBRET Fold Response for this one >= 1? CCCn1c(=O)c2[nH]c(-c3ccc(OCC(=O)NCCNC(=O)CCOCCNC(=O)c4ccc(CNC(=O)CCc5ccc6n5[B-](F)(F)[N+]5=C(c7ccc[nH]7)C=CC5=C6)cc4)cc3)nc2n(CCC)c1=O
yes (1)
